From: patent US20240409963A1

Consider the following compounds; for each one, report its Total editing Mean.
tested on: HEK293T cells; test: Different DNAPK inhibitors on precise gene editing outcomes, Example 8; details: sgRNA CD34 (gINS) + ssDNA, DNAPK inhibitor 0.3125 μM, 70 hours post-transfection;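 also: cells transfected with plasmids for SpCas9-EGFP, editing outcomes quantified from genomic DNA by deep targeted amplicon sequencing with bioinformatic analysis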
Numbers only.

Output measured Total editing Mean for this item: Cc1nccnc1C(O)c1ccc(F)c(-c2ncnc3cc(N4CCOCC4)ccc23)c1 (stereo not shown)
66.4

Dear reader, for each entry below, please note its Total editing Mean.
1. Cc1cc2ncnn2cc1Nc1ncc2c(n1)n(C1CCOCC1)c(=O)n2C
2. [2H]c1nc(C)nc([2H])c1-c1cc(NC[C@@H](C)c2cccc3c(C(=O)NC)ccnc23)ncn1
3. Cc1cc2ncnn2cc1Nc1ncc2c(n1)N(C1CCOCC1)CC(=O)N2C

1. 69.5
2. 66.8
3. 62.8
